target: AgCyk3; assay: SPOT peptide array binding signal intensity (averaged, normalized) (arbitrary units (background-subtracted, floor 0; scale differs between SH3 domains)); higher = stronger binding of the SH3 domain to the peptide
Item-by-item account of SPOT peptide array binding signal intensity
Test readout: SPOT peptide array binding signal intensity

| Binder | Result |
| --- | --- |
| KDKSRPPRPPPKPLH | ≤ 0 |
| QTMRQAPKRPDADVA | ≤ 0 |
| NQARKPFLLPATELS | ≤ 0 |
